These data points were gathered from PubChem BioAssay AID1259313.

# Tested on: Glutamate receptor ionotropic, NMDA 3A (GRIN3A) ligand-binding domain
# protocol.notes: binders of NR3A ligand-binding domain, primary screen, biophysical, differential scanning fluorimetry, uHTS (AID 1259313)
# condition.parameters: NR3A LBD differential scanning fluorimetry, at 25 µM, 0% = protein alone, 100% = glycine-bound protein
Out of some 340,000 compounds screened, about 8,500 (2.5%) were called active.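 Rule for the calls: active = melting temperature shift of at least 10% of the positive control shift, at one fixed dose; inactive = the rest.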 This excerpt belongs to a sample that is enriched for actives.
Allowed answers: label 1 (active), label 0 (inactive)

compound	class.label
CC1=NN(C(C)C)C(=O)C1	label 0
Cc1ccc2nc(Nc3ccccc3)cc(C)c2c1	label 1
CCOc1ccc(NC(=O)c2cc(C)nc3ccccc23)cc1	label 0

Problem: Test call, this compound: Cc1ccc(Nc2nc(C)cc(C)c2C(N)=O)cc1
Solution: label 0

Problem: Entry COc1ccccc1NC(=O)Nc1nnc(Cc2ccc(F)cc2)s1 : call = ?
Solution: label 0

Problem: Hey, what did the test say about CNS(=O)(=O)c1ccc(NC(=O)Nc2ccc3c(c2)OCO3)cc1 ?
Solution: label 1

Problem: Hey, what did the test say about COc1ccc(S(=O)(=O)N(C)C[C@H]2Oc3c(NC(=O)Nc4ccc5c(c4)OCO5)cccc3C(=O)N([C@H](C)CO)C[C@@H]2C)cc1 ?
Solution: label 0

Problem: Query: recorded result category for CC(=O)c1sc(N)nc1C in this test
Solution: label 0

Problem: Tell me the assay call for CCOC(=O)C1=C(CC)Nc2ccccc2N=C1NC(=O)c1cccc(S(=O)(=O)N2CCCC2)c1 please.
Solution: label 0

====

# Test system: Glutamate receptor ionotropic, NMDA 3A (GRIN3A) ligand-binding domain
# protocol.notes: binders of NR3A ligand-binding domain, primary screen, biophysical, differential scanning fluorimetry, uHTS (AID 1259313)
# condition.parameters: NR3A LBD differential scanning fluorimetry, at 25 µM, hits give high values, 0% = protein alone, 100% = glycine-bound protein
Among all 340,000 compounds or so, about 8,500 (2.5%) were called active. The entries come from a sample that favours actives as a whole.
measured.quantity: Tm shift relative to glycine control (%)
I only need the number, in %, no unit after it.

For orientation, consider the following solved cases.
compound	unit.spec	reported
COc1ccc(N(CC(=O)NC2CCCCCCC2)S(=O)(=O)c2c(C)nn(C)c2C)cc1	%	-1.2
CCc1cc(=O)oc2cc(C)cc(OC(C)C(=O)O)c12 (stereo not drawn)	%	-0.34
CN(CC(=O)Nc1ccc(OC(F)F)cc1)S(=O)(=O)/C=C/c1ccccc1	%	-9.87

Pending compound:
Problem: Requested read-out: Tm shift relative to glycine control. Entry: O=C(Nc1ccc(NC(=O)c2ccco2)c(Cl)c1)c1cccc([N+](=O)[O-])c1
Solution: 24.7

====

# System: Glutamate receptor ionotropic, NMDA 3A (GRIN3A) ligand-binding domain
# protocol.notes: binders of NR3A ligand-binding domain, primary screen, biophysical, differential scanning fluorimetry, uHTS (AID 1259313)
# condition.parameters: NR3A LBD differential scanning fluorimetry, at 25 µM, hits give high values, 0% = protein alone, 100% = glycine-bound protein
The whole screen tested about 340,000 compounds, of which about 8,500 (2.5%) were called active. The sample as a whole holds a higher share of actives than the screen did.
measured.quantity: Tm shift relative to glycine control (%)
Numbers only here, please. The scale is %.

Illustrative cases are given below, each with its answer.
compound	Tm shift relative to glycine control (%)
CCCCCCCCCCOC(=O)Cn1c(COc2ccc(C)cc2)[n+](C)c2ccccc21	-408
CCCCn1c(N)c(N(CCOC)C(=O)c2cccc(OCc3ccccc3)c2)c(=O)[nH]c1=O	1.68
NC(=O)Cc1ccc2sc(-c3ccccc3)nc2c1	-2.6
CC(C)(C)C(=O)COC(=O)c1cc(S(=O)(=O)N2CCCCC2)ccc1N1CCOCC1	-1.85
C=CCNC(=O)C1CC2c3ccccc3C1c1ccccc12 (stereo unspecified)	1.25

Proceeding to the next compound to report its Tm shift relative to glycine control.
Problem: Which value of Tm shift relative to glycine control has been reported for CSCCC(NC(=O)c1ccccc1)C(=O)N1CCCCCCC1 (stereo unspecified) in the records?
Solution: 0.17

====

# Tested on: Glutamate receptor ionotropic, NMDA 3A (GRIN3A) ligand-binding domain
# protocol.notes: binders of NR3A ligand-binding domain, primary screen, biophysical, differential scanning fluorimetry, uHTS (AID 1259313)
# condition.parameters: NR3A LBD differential scanning fluorimetry, at 25 µM, 0% = protein alone, 100% = glycine-bound protein
Among all 340,000 compounds or so, about 8,500 (2.5%) were called active.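 How the source made its calls: active means melting temperature shift of at least 10% of the positive control shift, at one fixed dose; inactive means the rest.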 The list comes from a sample in which actives are over-represented; it also holds close analogues and randomly drawn compounds.
API: response.call in T for active, F for inactive

molecule	class.label
COc1ccc2[nH]cc(CCN3C(=O)c4ccc(C(=O)O)cc4C3=O)c2c1	F
S=C(NCC1COc2ccccc2O1)Nc1ccc(Br)cc1 (stereo unspecified)	T
CCOc1ccc(C(CCc2ccccc2)NC(=O)c2ccc(OC)c(OC)c2)cc1OCC (stereo unspecified)	F
S=C(Nc1ccc(Br)cc1)NC1CCN(Cc2ccccc2)CC1	F

Problem: Please state the recorded outcome for this molecule: S=C(NCCCc1ccccc1)Nc1ccc(Br)cc1
Solution: T

Problem: Fill in: this test's call for O=C(NCC1COc2ccccc2O1)C1(c2ccccc2)CCCC1 (stereo unspecified) is ___
Solution: F

====

# System: Glutamate receptor ionotropic, NMDA 3A (GRIN3A) ligand-binding domain
# protocol.notes: binders of NR3A ligand-binding domain, primary screen, biophysical, differential scanning fluorimetry, uHTS (AID 1259313)
# condition.parameters: NR3A LBD differential scanning fluorimetry, at 25 µM, 0% = protein alone, 100% = glycine-bound protein
Among all 340,000 compounds or so, about 8,500 (2.5%) were called active.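 How the source made its calls: active means melting temperature shift of at least 10% of the positive control shift, at one fixed dose; inactive means the rest.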 The entries come from a sample that favours actives as a whole.
Response enum: active, inactive

A selection of reference data follows.
molecule	system	class.label
S=c1[nH]c2ccccc2c2ccccc12	Glutamate receptor ionotropic, NMDA 3A (GRIN3A) ligand-binding domain	inactive
O=C(CCCCCn1c(=S)[nH]c2cc3c(cc2c1=O)OCO3)N1CCN(c2ccc(F)cc2)CC1	Glutamate receptor ionotropic, NMDA 3A (GRIN3A) ligand-binding domain	active
C=CCn1c(SCc2ccc(C(=O)NCCO)cc2)nc2ccccc2c1=O	Glutamate receptor ionotropic, NMDA 3A (GRIN3A) ligand-binding domain	inactive
COc1ccc(NCc2nnc(SCc3ccccc3)n2-c2ccc(OC)cc2)cc1	Glutamate receptor ionotropic, NMDA 3A (GRIN3A) ligand-binding domain	inactive
C/C(=N\NS(=O)(=O)c1ccccc1)c1c(O)cc(C)oc1=O	Glutamate receptor ionotropic, NMDA 3A (GRIN3A) ligand-binding domain	inactive

Problem: Would you mind telling me which call this test gave S=C1NC(c2ccccc2)=NCN1c1ccc(Br)cc1 ?
Solution: inactive

Problem: Check the results log: what was the call for CCC(C)n1[nH]c(=O)cc1N (stereo unspecified) ?
Solution: inactive

Problem: Name the outcome recorded for Cc1cccc(N=Nc2c(O)[nH]c3ccc(F)cc23)c1 in the assay.
Solution: active

Problem: Which outcome was assigned to Cc1ccc(C)c(N2CCN(C(=O)CCCCCn3c(=S)[nH]c4ccc(N5CCOCC5)cc4c3=O)CC2)c1 in this test?
Solution: inactive

Problem: What outcome does the record of this test show for C=CCn1c(SCc2ccc(Cl)c(Cl)c2)nnc1C(CO)NC(=O)c1ccc(OC)cc1 (stereo unspecified) ?
Solution: inactive

Problem: Called result for Cc1nc2ccccc2c(=O)n1NC(=O)c1ccc(Cl)c([N+](=O)[O-])c1
Solution: inactive

====

# Tm shift relative to glycine control per record follows
# Test system: Glutamate receptor ionotropic, NMDA 3A (GRIN3A) ligand-binding domain
# protocol.notes: binders of NR3A ligand-binding domain, primary screen, biophysical, differential scanning fluorimetry, uHTS (AID 1259313)
# condition.parameters: NR3A LBD differential scanning fluorimetry, at 25 µM, hits give high values, 0% = protein alone, 100% = glycine-bound protein
About 8,500 (2.5%) of roughly 340,000 compounds were called active. Many of the other results were omitted from the sample, so actives are more common in it than they were.

smiles.input	measured.quantity	reported
CCCC(=O)N(CCN1CCOCC1)c1nc2ccc(OCC)cc2s1	Tm shift relative to glycine control	-6.33% (inactive)
NS(=O)(=O)c1ccc(CCNC(=O)CN2C(=O)c3ccccc3S2(=O)=O)cc1	Tm shift relative to glycine control	3.53% (inactive)
COc1ccc(S(=O)(=O)N2CCCCC2)cc1NC(=O)c1cc([N+](=O)[O-])ccc1N1CCOCC1	Tm shift relative to glycine control	-1.87% (inactive)
COc1cccc(NC(=O)COC(=O)/C=C/c2ccco2)c1	Tm shift relative to glycine control	-0.92% (inactive)

Continue with the next compound.
Problem: Which value of Tm shift relative to glycine control has been reported for CSc1nc2ccc(NC(=O)c3c(F)cccc3F)cc2s1 in the records?
Solution: 3.67% (inactive)
